Origin of the recorded values: patent EP4371976B1

- assay_overview: RNA encapsulation efficiency of LNPs by Quant-IT Ribogreen
- Format: physicochemical
- condition_label: LNPs with luciferase mRNA; ionizable lipid:non-cationic lipid:sterol:PEG-modified lipid 50:10:38.5:1.5; percentage of RNA entrapped in the LNP
value_kind: Encaps. efficiency (%)

Below, each entry is followed by its recorded Encaps. efficiency (%) result.
[[record]]
compound = "CCCCCCCCOC(=O)CCSCCC(NC(=O)C(CCCCCC)CCCCCCCC)C(=O)NCCCN1CCOCC1 (centres unmarked)"
value = 47.36

[[record]]
compound = "CCCCCCCC/C=C\\CCCCCCCC(=O)NC(CCSCCC(=O)OCCCCCCCCCCCCC)C(=O)NCCCN(CCO)CCO (centres unmarked)"
value = 89.26

[[record]]
compound = "CCCCCCCCC(CCCCCC)COC(=O)C(CCSCCC(=O)OCCCCCCCC(C)C)C(=O)NCCCN1CCOCC1 (centres unmarked)"
value = 49.38

[[record]]
compound = "CCCCCCCCCCCCCCCCCCCCCCOC(=O)CCSCC(CC(=O)NCCCN1CCOCC1)C(=O)OC(CCCCCCCC)CCCCCCCC (centres unmarked)"
value = 36.38

[[record]]
compound = "CCCCCCCCCCCCCCCCCCCCCCOC(=O)CCSCC(CC(=O)NCCCn1ccnc1)C(=O)OC(CCCCCCCC)CCCCCCCC (centres unmarked)"
value = 54.05


P. CCCCCCCC/C=C\CCCCCCCCOC(=O)CCSCC(CC(=O)NC1CCN(C)CC1)C(=O)OCC(CCCCCC)CCCCCCCC (centres unmarked)
Q. CCCCCCCCC(CCCCCCCC)OC(=O)C(CSCCC(=O)OCCCCCC(C)C)CC(=O)NCCCn1ccnc1 (centres unmarked)
Among P and Q , which shows a numerically higher Encaps. efficiency (%) result? Lab log: write the label of the selected item as the result.
P
(P: 85.33%, Q: 40.58%)

---

- assay_overview: Size distribution, polydispersity and Z-potential of LNPs by dynamic light scattering (Malvern Zetasizer)
- Format: physicochemical
- condition_label: LNPs, standard formulation 50:10:38.5:1.5; DLS
value_kind: Z Potential (± D.E.) [mV] (mV)

[[record]]
compound = "CCCCCCCCCCCCOC(=O)CCSCC(CC(=O)NCCCn1ccnc1)C(=O)OC(CCCCCCCC)CCCCCCCC (stereo not shown) [VC-LC-0298]"
unit = "mV"
value = -13.51

[[record]]
compound = "CCCCCCCCC(CCCCCC)C(=O)NC(CCSCCC(=O)OCCCCCCCC(C)C)C(=O)NC1CCN(C)CC1 (stereo not shown) [VC-LC-0211]"
unit = "mV"
value = -4.59


A. CCCCCCCC/C=C\CCCCCCCCOC(=O)CCSCCC(NC(=O)C(CCCCCCCC)CCCCCCCCCC)C(=O)NCC1CCN(C)CC1 (stereo not shown) [VC-LC-0523]
B. CCCCCCCCC(CCCCCC)C(=O)NC(CCSCCC(=O)OCC(CC)CCCC)C(=O)NCCCN1CCCC1 (stereo not shown) [VC-LC-0244]
Among A and B , which shows a numerically higher Z Potential (± D.E.) [mV] result? Lab log: write the label of the selected item as the result.
A

---

- assay_overview: RNA encapsulation efficiency of LNPs by Quant-IT Ribogreen
- Format: physicochemical
- condition_label: LNPs with luciferase mRNA; ionizable lipid:non-cationic lipid:sterol:PEG-modified lipid 50:10:38.5:1.5; percentage of RNA entrapped in the LNP
value_kind: Encaps. efficiency (%)

Below, each entry is followed by its recorded Encaps. efficiency (%) result.
[[record]]
compound = "CCCCCCCCC(CCCCCC)C(=O)NC(CCSCCC(=O)OCC(CC)CCCC)C(=O)NCC1CCN(C)CC1 (stereo not drawn)"
unit = "%"
value = 98.56

[[record]]
compound = "CCCCCCCCC(CCCCCC)C(=O)NC(CCSCCC(=O)OCC(CC)CCCC)C(=O)NCCCN(CCO)CCO (stereo not drawn)"
unit = "%"
value = 90.54

[[record]]
compound = "CCCCCCCCCCC(CCCCCCCC)C(=O)NC(CCSCCC(=O)OCCCCCC)C(=O)NC1CCN(C)CC1 (stereo not drawn)"
unit = "%"
value = 55.25

[[record]]
compound = "CCCCCCCCCCCCOC(=O)CCSCCC(C(=O)NC1CCN(C)CC1)C(=O)OC(CCCCCCCC)CCCCCCCC (stereo not drawn)"
unit = "%"
value = 76.52

[[record]]
compound = "CCCCCCCC/C=C\\CCCCCCCC(=O)NC(CCSCCC(=O)OCC(CCCCCCCCCC)CCCCCCCCCCCC)C(=O)NCCCN1CCOCC1 (stereo not drawn)"
unit = "%"
value = 57.26

[[record]]
compound = "CCCCCCCCCCC(CCCCCCCC)C(=O)NC(CCSCCC(=O)OCCCCCC)C(=O)NCC1CCN(C)CC1 (stereo not drawn)"
unit = "%"
value = 97.70

[[record]]
compound = "CCCCCCCCCCCCCCCCCCOC(=O)CCSCC(CC(=O)NCCCN1CCOCC1)C(=O)OC(CCCCCCCC)CCCCCCCC (stereo not drawn)"
unit = "%"
value = 39.62

[[record]]
compound = "CCCCCCCCCCCCOC(=O)CCSCC(CC(=O)NC1CCN(C)CC1)C(=O)OCC(CCCCCC)CCCCCCCC (stereo not drawn)"
unit = "%"
value = 98.83


P. CCCCCCCCC(CCCCCC)COC(=O)C(CSCCC(=O)OCCCCCC(C)C)CC(=O)NC1CCN(C)CC1 (stereo not drawn)
Q. CCCCCCCC/C=C\CCCCCCCCOC(=O)CCSCCC(NC(=O)C(CCCCCC)CCCCCCCC)C(=O)NCCCN1CCOCC1 (stereo not drawn)
I'm curious, which of these has a smaller Encaps. efficiency (%) number: P or Q ? Lab log: write the label of the selected item as the result.
Q

I. CCCCCCCCCCCCOC(=O)CCSCCC(NC(=O)C(CCCCCC)CCCCCCCC)C(=O)NCCCN(C)C (stereo not drawn)
II. CCCCCCCCC(CCCCCC)C(=O)NC(CCSCCC(=O)OCCCCCCCC(C)C)C(=O)NCCCN1CCOCC1 (stereo not drawn)
Among I and II , which shows a numerically higher Encaps. efficiency (%) result? Lab log: write the label of the selected item as the result.
I

---

- assay_overview: Apparent pKa of LNPs comprising the ionizable lipid (Table 6)
- condition_label: standard formulation 50:10:38.5:1.5
value_kind: Apparent pKa

[[record]]
compound = "CCCCCCCC/C=C\\CCCCCCCCOC(=O)CCSCCC(NC(=O)C(CCCCCC)CCCCCCCC)C(=O)NCCCN1CCOCC1 (stereo not shown) [VC-LC-0361]"
value = 5.29

[[record]]
compound = "CCCCCCCCC(CCCCCC)C(=O)NC(CCSCCC(=O)OCCCCCC(C)C)C(=O)NCC1CCN(C)CC1 (stereo not shown) [VC-LC-0498]"
value = 7.47

[[record]]
compound = "CCCCCCCCCCCCCCCCCC(=O)NC(CCSCCC(=O)OCCCCCCCCCCCC)C(=O)NC1CCN(C)CC1 (stereo not shown) [VC-LC-0434]"
value = 5.72

[[record]]
compound = "CCCCCCCCCCCCCCCCOC(=O)CCSCCC(NC(=O)C(CCCCCC)CCCCCCCC)C(=O)NCCN1CCN(C)CC1 (stereo not shown) [VC-LC-0185]"
value = 5.85


---

- assay_overview: Size distribution, polydispersity and Z-potential of LNPs by dynamic light scattering (Malvern Zetasizer)
- Assay type: physicochemical
- condition_label: LNPs, standard formulation 50:10:38.5:1.5; DLS
value_kind: P.D.I.

[[record]]
compound = "CCCCCCCCC(CCCCCC)C(=O)NC(CCSCCC(=O)OCCCCCCCC(C)C)C(=O)NC1CCN(C)CC1 (centres unmarked)"
value_kind = "P.D.I."
value = 0.14


a. CCCCCCCCCCCCC(CCCCCCCCCC)COC(=O)CCSCCC(NC(=O)C(CCCCCC)CCCCCCCC)C(=O)NC1CCN(C)CC1 (centres unmarked)
b. CCCCCCCCCCCCCCCCCC(=O)NC(CCSCCC(=O)OCCCCCCCCCCCC)C(=O)NC1CCN(C)CC1 (centres unmarked)
Among a and b , which shows a numerically higher P.D.I. result? Lab log: write the label of the selected item as the result.
b
(b: 0.2483, a: 0.11)

A. CCCCCCCCCCCCOC(=O)CCSCCC(C(=O)NC1CCN(C)CC1)C(=O)OC(CCCCCCCC)CCCCCCCC (centres unmarked)
B. CCCCCCCCCCCCCCCCCCCCCCOC(=O)CCSCC(CC(=O)NCCCn1ccnc1)C(=O)OC(CCCCCCCC)CCCCCCCC (centres unmarked)
I'm curious, which of these has a smaller P.D.I. number: A or B ? Lab log: write the label of the selected item as the result.
A
(A: 0.10, B: 0.26)

---

- assay_overview: Size distribution, polydispersity and Z-potential of LNPs by dynamic light scattering (Malvern Zetasizer)
- Format: physicochemical
- condition_label: LNPs, standard formulation 50:10:38.5:1.5; DLS
value_kind: Z Potential (± D.E.) [mV] (mV)

Below, each entry is followed by its recorded Z Potential (± D.E.) [mV] result.
[[record]]
molecule = "CCCCCCCCCCC(CCCCCCCC)C(=O)NC(CCSCCC(=O)OCCCCCC)C(=O)NCC1CCN(C)CC1 (stereo not drawn) [VC-LC-0518]"
value = 3.90

[[record]]
molecule = "CCCCCCCCCCCCOC(=O)CCSCCC(C(=O)NC1CCN(C)CC1)C(=O)OC(CCCCCCCC)CCCCCCCC (stereo not drawn) [VC-LC-0440]"
value = -3.61

[[record]]
molecule = "CCCCCCCCCCCCCOC(=O)CCSCCC(C(=O)NCCCn1ccnc1)C(=O)OC(CCCCCCCC)CCCCCCCC (stereo not drawn) [VC-LC-0362]"
value = -13.94


a. CCCCCCCCC(CCCCCC)C(=O)NC(CCSCCC(=O)OCCCCCCCC(C)C)C(=O)NCC1CCN(C)CC1 (stereo not drawn) [VC-LC-0492]
b. CCCCCCCC/C=C\CCCCCCCCOC(=O)CCSCC(CC(=O)NC1CCN(C)CC1)C(=O)OCC(CCCCCC)CCCCCCCC (stereo not drawn) [VC-LC-0539]
I'm curious, which of these has a smaller Z Potential (± D.E.) [mV] number: a or b ? Lab log: write the label of the selected item as the result.
b
(b: -1.24 mV, a: 0.83 mV)

P. CCCCCCCC/C=C\CCCCCCCCOC(=O)CCSCCC(NC(=O)C(CCCCCC)CCCCCCCC)C(=O)NCCCN1CCOCC1 (stereo not drawn) [VC-LC-0361]
Q. CCCCCCCCC(CCCCCC)C(=O)NC(CCSCCC(=O)OCC(CC)CCCC)C(=O)NC1CCN(C)CC1 (stereo not drawn) [VC-LC-0212]
Among P and Q , which shows a numerically higher Z Potential (± D.E.) [mV] result? Lab log: write the label of the selected item as the result.
P
(P: -12.18 mV, Q: -20.85 mV)

P. CCCCCCCCCCCCCOC(=O)CCSCCC(C(=O)NCCCN1CCOCC1)C(=O)OCC(CCCCCC)CCCCCCCC (stereo not drawn) [VC-LC-0605]
Q. CCCCCCCCCCC(CCCCCCCC)C(=O)NC(CCSCCC(=O)OCCCCCCCC(C)C)C(=O)NCC1CCN(C)CC1 (stereo not drawn) [VC-LC-0509]
Among P and Q , which shows a numerically higher Z Potential (± D.E.) [mV] result? Lab log: write the label of the selected item as the result.
Q

P. CCCC#CCCOC(=O)CCSCCC(NC(=O)C(CCCCCC)CCCCCCCC)C(=O)NC1CCN(C)CC1 (stereo not drawn) [VC-LC-0432]
Q. CCCCCCCCC(CCCCCC)C(=O)NC(CCSCCC(=O)OCC(CC)CCCC)C(=O)NCCCN1CCOCC1 (stereo not drawn) [VC-LC-0166]
I'm curious, which of these has a smaller Z Potential (± D.E.) [mV] number: P or Q ? Lab log: write the label of the selected item as the result.
Q
(Q: -24.55 mV, P: -16.42 mV)

I. CCCCCCCCC(CCCCCC)COC(=O)CCSCC(CC(=O)NC1CCN(C)CC1)C(=O)OCC(CCCCCC)CCCCCCCC (stereo not drawn) [VC-LC-0525]
II. CCCCCCCCC(CCCCCC)COC(=O)C(CSCCC(=O)OCCCCCCCC(C)C)CC(=O)NC1CCN(C)CC1 (stereo not drawn) [VC-LC-0526]
Among I and II , which shows a numerically higher Z Potential (± D.E.) [mV] result? Lab log: write the label of the selected item as the result.
II
